# subjectOfTest: Recombinant human IL-1β (BioLegend 579404) (human, UniProt P01584 117-269)
# testProtocol: cell-based or functional assay
Non-standard residues stand in square brackets, D forms with d. No end group written: not given here. Phe(4-(5-CO2H-2-pyrimidyl)) = N[C@@H](Cc1ccc(-c2ncc(C(=O)O)cn2)cc1)C(=O)O; dPro(4R-(4-pyridylmethyl)) = O=C(O)[C@H]1C[C@@H](Cc2ccncc2)CN1; Trp(βS-Me,4-F) = C[C@@H](c1c[nH]c2cccc(F)c12)[C@H](N)C(=O)O; Bip(4'-COOH) = N[C@@H](Cc1ccc(-c2ccc(C(=O)O)cc2)cc1)C(=O)O; Ala(1-bicyclo(1.1.1)pentyl) = N[C@@H](CC12CC(C1)C2)C(=O)O; Ala(pyrimidin-5-yl) = N[C@@H](Cc1cncnc1)C(=O)O; Phe(4-COOH) = N[C@@H](Cc1ccc(C(=O)O)cc1)C(=O)O; Pro(cis-4-F) = O=C(O)[C@@H]1C[C@H](F)CN1; 4Pal = N[C@@H](Cc1ccncc1)C(=O)O; d(αMeS) = C[C@@](N)(CO)C(=O)O; Dab = NCC[C@H](N)C(=O)O; Aib = CC(C)(N)C(=O)O; Sar = CNCC(=O)O
Reported MRC5 IC50 values for the following binders.
Give your result in pM as a bare value.

{"binder": "[Phe(4-(5-CO2H-2-pyrimidyl))][Ala(1-bicyclo(1.1.1)pentyl)][Phe(4-COOH)]G[Pro(cis-4-F)][SbMcW4F][Aib]SW[Aib][Ala(pyrimidin-5-yl)]Q[Dab]G[dPro(4R-(4-pyridylmethyl))] (lactam (positions not given here); also: macrolactam ring, closure sites not given here) [SEQ ID NO: 198]", "MRC5 IC50 / pM": 24}

// moving on: another record for MRC5 IC50
Documented MRC5 IC50 of cyclo([Bip(4'-COOH)][4Pal][Phe(4-COOH)]G[Pro(cis-4-F)][Trp(βS-Me,4-F)][Aib]SW[d(αMeS)][Ala(pyrimidin-5-yl)]Q[Dab][Sar][dPro(4R-(4-pyridylmethyl))]) (ring closure inferred; not fully specified (bridges); printed as Bip4CO2H-4Pal-Phe4COOH-G-Proc4F-SbMeW4F-Aib-S-W-daMeS-PyrimAla-Q-Dab-Sar-dProc4CH24Pal, cyclic (macrolactam)) [SEQ ID NO: 206] : 22
